These entries and their values trace back to paper PMC8869984.

- System: B. cereus ATCC 10876
- protocolNotes: micro-dilution broth method (MIC, MBC)
- Format: cell-based, Bacillus cereus
- conditionSet: B. cereus ATCC 10876, value in brackets
quantityMeasured: MIC
Hey, just the number and the unit after it is fine.

Below, 4 compounds whose answers are already recorded.
O=[N+]([O-])[O-].[Ag+] [AgNO3, Silver nitrate] | 0.185 µM/mL
Cc1ncc([N+](=O)[O-])n1CCO | 2.93 µM/mL
O=S(=O)([O-])[O-].[Ag+].[Ag+] [Ag2SO4, silver sulfate] | 0.1 µM/mL
Cc1ncc([N+](=O)[O-])n1CCO.Cc1ncc([N+](=O)[O-])n1CCO.Cc1ncc([N+](=O)[O-])n1CCO.Cc1ncc([N+](=O)[O-])n1CCO.O=S(=O)([O-])[O-].[Ag+].[Ag+] [[Ag(MTZ)2]2SO4] | 0.06 µM/mL

Here is the next item to consider.
Record Cc1ncc([N+](=O)[O-])n1CCO.Cc1ncc([N+](=O)[O-])n1CCO.O=[N+]([O-])[O-].[Ag+] [[Ag(MTZ)2NO3]] . Reported MIC: 0.2 µM/mL

* * *

- System: B. cereus ATCC 10876
- protocolNotes: micro-dilution broth method (MIC, MBC)
- Type: cell-based, Bacillus cereus
- conditionSet: B. cereus ATCC 10876, value in brackets
quantityMeasured: MBC (µM/mL)
# value in µM/mL; strip the unit string

Worked cases, answers included:
Cc1ncc([N+](=O)[O-])n1CCO.Cc1ncc([N+](=O)[O-])n1CCO.O=[N+]([O-])[O-].[Ag+] [[Ag(MTZ)2NO3]] | 0.4
O=S(=O)([O-])[O-].[Ag+].[Ag+] [Ag2SO4, silver sulfate] | 1.6
O=[N+]([O-])[O-].[Ag+] [AgNO3, Silver nitrate] | 0.37

Now let's try a different one.
Looking up Cc1ncc([N+](=O)[O-])n1CCO.Cc1ncc([N+](=O)[O-])n1CCO.Cc1ncc([N+](=O)[O-])n1CCO.Cc1ncc([N+](=O)[O-])n1CCO.O=S(=O)([O-])[O-].[Ag+].[Ag+] [[Ag(MTZ)2]2SO4] , I found its MBC recorded as 0.12

* * *

- Test system: S. typhimurium ATCC 14028
- protocolNotes: micro-dilution broth method (MIC, MBC)
- Format: cell-based, Salmonella Typhimurium
- conditionSet: S. typhimurium ATCC 14028
quantityMeasured: MIC (µg/mL)
Use µg/mL as the unit, but write only the number.

Below, each entry is followed by its recorded MIC result.
O=S(=O)([O-])[O-].[Ag+].[Ag+] [Ag2SO4, silver sulfate] | 31.3
Cc1ncc([N+](=O)[O-])n1CCO.Cc1ncc([N+](=O)[O-])n1CCO.O=[N+]([O-])[O-].[Ag+] [[Ag(MTZ)2NO3]] | 15.6
Cc1ncc([N+](=O)[O-])n1CCO.Cc1ncc([N+](=O)[O-])n1CCO.Cc1ncc([N+](=O)[O-])n1CCO.Cc1ncc([N+](=O)[O-])n1CCO.O=S(=O)([O-])[O-].[Ag+].[Ag+] [[Ag(MTZ)2]2SO4] | 15.6

Attention now turns to another entry.
MIC in this record for O=[N+]([O-])[O-].[Ag+] [AgNO3, Silver nitrate] : 15.6

* * *

- Tested on: A. israeli ATCC 10049
- protocolNotes: micro-dilution broth method (MIC, MBC)
- Format: cell-based, Actinomyces israelii
- conditionSet: A. israeli ATCC 10049
quantityMeasured: MBC

// known answers, use as guide
Cc1ncc([N+](=O)[O-])n1CCO.Cc1ncc([N+](=O)[O-])n1CCO.Cc1ncc([N+](=O)[O-])n1CCO.Cc1ncc([N+](=O)[O-])n1CCO.O=S(=O)([O-])[O-].[Ag+].[Ag+] [[Ag(MTZ)2]2SO4] | 15.6 µg/mL
O=S(=O)([O-])[O-].[Ag+].[Ag+] [Ag2SO4, silver sulfate] | 15.6 µg/mL
O=[N+]([O-])[O-].[Ag+] [AgNO3, Silver nitrate] | 0.49 µg/mL

Continue with the compound presented below.
# MBC (compound: Cc1ncc([N+](=O)[O-])n1CCO.Cc1ncc([N+](=O)[O-])n1CCO.O=[N+]([O-])[O-].[Ag+] [[Ag(MTZ)2NO3]] ) is 3.9 µg/mL
